Test system: sGC α1/β1 heterodimer stably expressed in CHO-K1 cell line (CHO-K1/sGC) (Homo sapiens, UniProt Q02108+Q02153)
Construct: expressed in transfected cells
Sequence (Q02108 whole entry): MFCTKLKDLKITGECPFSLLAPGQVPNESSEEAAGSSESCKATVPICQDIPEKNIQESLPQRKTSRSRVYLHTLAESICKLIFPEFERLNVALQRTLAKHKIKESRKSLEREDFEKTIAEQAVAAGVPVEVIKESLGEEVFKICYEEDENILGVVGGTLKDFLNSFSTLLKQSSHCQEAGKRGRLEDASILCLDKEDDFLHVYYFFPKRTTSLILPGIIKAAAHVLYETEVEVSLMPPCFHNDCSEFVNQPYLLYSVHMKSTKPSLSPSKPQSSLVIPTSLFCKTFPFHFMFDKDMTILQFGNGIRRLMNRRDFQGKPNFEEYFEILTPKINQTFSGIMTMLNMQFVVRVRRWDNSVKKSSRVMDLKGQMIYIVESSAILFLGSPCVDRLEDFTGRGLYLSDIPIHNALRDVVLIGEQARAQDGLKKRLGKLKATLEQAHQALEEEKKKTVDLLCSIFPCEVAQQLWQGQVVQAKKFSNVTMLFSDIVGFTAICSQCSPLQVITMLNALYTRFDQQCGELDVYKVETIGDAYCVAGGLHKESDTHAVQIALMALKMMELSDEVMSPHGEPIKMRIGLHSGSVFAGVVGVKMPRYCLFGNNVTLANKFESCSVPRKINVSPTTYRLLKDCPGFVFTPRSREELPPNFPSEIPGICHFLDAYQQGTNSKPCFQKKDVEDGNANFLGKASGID
Sequence (Q02153 whole entry): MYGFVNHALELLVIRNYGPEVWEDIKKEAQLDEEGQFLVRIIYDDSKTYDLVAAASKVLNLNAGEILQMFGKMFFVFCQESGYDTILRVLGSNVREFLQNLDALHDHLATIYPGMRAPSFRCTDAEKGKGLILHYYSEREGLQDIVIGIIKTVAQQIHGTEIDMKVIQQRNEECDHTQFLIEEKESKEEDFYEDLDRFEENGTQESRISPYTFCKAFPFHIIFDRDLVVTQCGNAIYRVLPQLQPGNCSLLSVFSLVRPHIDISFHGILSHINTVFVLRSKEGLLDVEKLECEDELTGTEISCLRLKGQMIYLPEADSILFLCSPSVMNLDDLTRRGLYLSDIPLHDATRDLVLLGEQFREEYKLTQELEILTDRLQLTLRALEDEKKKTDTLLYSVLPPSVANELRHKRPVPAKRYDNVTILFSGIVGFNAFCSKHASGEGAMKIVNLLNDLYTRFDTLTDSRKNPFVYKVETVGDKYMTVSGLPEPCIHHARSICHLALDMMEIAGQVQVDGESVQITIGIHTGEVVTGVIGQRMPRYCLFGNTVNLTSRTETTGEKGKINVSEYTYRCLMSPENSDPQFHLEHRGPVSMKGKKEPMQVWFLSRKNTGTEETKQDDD
Assay details: Cell-based sGC Functional Assay (CASA Assay), cGMP generation
Experimental parameters: CHO-K1/sGC cells, 1 hr at 37° C., cGMP by HTRF, 4P fit; presence or absence of 1 μM DETA-NO not given; read-out: IP (nM) (inflection point)
Readout label: EC50 (nM)

Below, 5 molecules whose answers are already recorded.
INSERT INTO assay_data (molecule, value) VALUES
  ('Cc1cnc(C2(C3CC3)C(=O)Nc3nc(-c4cn5ncnc5c(CCC(F)(F)C(F)(F)F)n4)nc(N)c32)cn1 (racemic) [Example 21B]', 43.1),
  ('CC1(c2ccc(C#N)cn2)C(=O)Nc2nc(-c3cn4ncnc4c(CCCC(F)(F)F)n3)nc(N)c21 (stereo not shown) [Example 48A]', 77.9),
  ('Nc1nc(-c2cn3ncnc3c(CCCC(F)(F)F)n2)nc2c1C(c1ccc(C(F)(F)F)cn1)(C1CC1)C(=O)N2 (single isomer, unassigned)', 128),
  ('Nc1nc(-c2cn3ncnc3c(CCCC(F)(F)F)n2)nc2c1C(c1ncc(C(F)(F)F)cn1)(C1CC1)C(=O)N2 (single isomer, unassigned) [Example 180B]', 488),
  ('CC1(c2ccc(C#N)cn2)C(=O)Nc2nc(-c3cn4ncnc4c(CCC(F)(F)C(F)(F)F)n3)nc(O)c21 (stereo not shown) [Example 131A]', 1470);

a: CCCCc1nc(-c2nc(N)c3c(n2)NC(=O)C3(c2ccc(C)cn2)C2CC2)cn2ncnc12 (racemic) [Example 72B]
b: CCCCc1nc(-c2nc(N)c3c(n2)NC(=O)C3(c2ccc(Cl)cn2)C2CC2)cn2ncnc12 (stereo not shown) [Example 68A]
Field: entry with larger EC50 (options a / b ). Return value: the label identifying the chosen record.
a
(a: 28.5 nM, b: 18.7 nM)

====

Test system: sGC α1/β1 heterodimer stably expressed in CHO-K1 cell line (CHO-K1/sGC) (Homo sapiens, UniProt Q02108+Q02153)
Construct: expressed in transfected cells
Assay details: Cell-based sGC Functional Assay (CASA Assay), cGMP generation
Experimental parameters: CHO-K1/sGC cells, 1 hr at 37° C., cGMP by HTRF, 4P fit; presence or absence of 1 μM DETA-NO not given; read-out: IP (nM) (inflection point)
Readout label: EC50 (nM)

INSERT INTO measurements (molecule, value) VALUES
  ('CCCc1nc(-c2nc(N)c3c(n2)NC(=O)C3(C)c2ccc(F)cn2)cn2nc(C)nc12 (stereo not shown) [Example 92B]', 4830),
  ('C[C@@]1(c2ccc(F)cc2)C(=O)Nc2nc(-c3cn4ncnc4c(CCC(F)(F)C(F)(F)F)n3)ncc21 [Example 172A]', 212),
  ('Cc1nc2c(CCC(F)(F)C(F)(F)F)nc(-c3nc(O)c4c(n3)NC(=O)[C@@]4(C)c3ccc(F)cc3)cn2n1 [Example 133B]', 856),
  ('O=C1Nc2nc(-c3cn4ncnc4c(CCCC(F)(F)F)n3)nc(O)c2C1(c1ccc(F)cn1)C1CC1 (stereo not shown) [Example 150A]', 1220),
  ('CC1(c2nnc(C(F)(F)F)o2)C(=O)Nc2nc(-c3cn4ncnc4c(CCCC(F)(F)F)n3)nc(N)c21 (stereo not shown) [Example 101A]', 121);

1: CCCCc1nc(-c2nc(O)c3c(n2)NC(=O)C3(C)c2ccc(F)cn2)cn2ncnc12 (stereo not shown) [Example 155B]
2: CC1(c2ncc(C(F)(F)F)cn2)C(=O)Nc2nc(-c3cn4ncnc4c(CCCC(F)(F)F)n3)nc(N)c21 (racemic) [Example 51B]
Pick one, 1 or 2 : lowest reported EC50. Return value: the label identifying the chosen record.
2
(2: 15.1 nM, 1: 163 nM)
